Value source: ChEMBL document CHEMBL3885861

Kindly supply the reported Plat values for the records listed here.
# Organism: Rattus norvegicus
# measurement-description: Open TG-GATES - Regimen: Single
# Type: toxicity, organism-based, Sprague-Dawley
# Design: regimen Single, gender Male, age 6 weeks
# condition-context: in vivo, po, 300 mg/kg, 24 h, tissue Blood, route gavage, dose level Middle
The reply should contain only the number, in x10_4/uL.

What the record says about CN/C(=N/CCSCc1nc[nH]c1C)NC#N : Plat is 126.7

compound CNC(=C[N+](=O)[O-])NCCSCc1ccc(CN(C)C)o1 , Plat observed: 125.9

The reported Plat of the compound O=C(OC[C@H]1O[C@@H](OC(=O)c2cc(O)c(O)c(OC(=O)c3cc(O)c(O)c(O)c3)c2)[C@H](OC(=O)c2cc(O)c(O)c(OC(=O)c3cc(O)c(O)c(O)c3)c2)[C@@H](OC(=O)c2cc(O)c(O)c(OC(=O)c3cc(O)c(O)c(O)c3)c2)[C@@H]1OC(=O)c1cc(O)c(O)c(OC(=O)c2cc(O)c(O)c(O)c2)c1)c1cc(O)c(O)c(OC(=O)c2cc(O)c(O)c(O)c2)c1 was 110.3

Plat measured on Cc1nnc2n1-c1ccc(Cl)cc1C(c1ccccc1Cl)=NC2 = 127

Plat recorded for this compound, COC(=O)C1=C(C)NC(C)=C(C(=O)OC)C1c1ccccc1[N+](=O)[O-] , is 128.1

====

Field: Na. Provide a value for each of the molecules that follow.
# Species: Rattus norvegicus
# measurement-description: Open TG-GATES - Regimen: Single
# Assay type: toxicity, organism-based, Sprague-Dawley
# Design: regimen Single, gender Male, age 6 weeks
# condition-context: in vivo, po, 300 mg/kg, 24 h, tissue Plasma, route gavage, dose level Middle

Sure, the documented Na for CNC(=C[N+](=O)[O-])NCCSCc1ccc(CN(C)C)o1 is 140 meq/L

Per the record, COC(=O)C1=C(C)NC(C)=C(C(=O)OC)C1c1ccccc1[N+](=O)[O-] has Na of 145 meq/L

Documented Na of CN/C(=N/CCSCc1nc[nH]c1C)NC#N : 140.8 meq/L

====

Answer each item with its documented Bas.
# Organism: Rattus norvegicus
# measurement-description: Open TG-GATES - Regimen: Daily Repeat
# Type: toxicity, organism-based, Sprague-Dawley
# Design: regimen Daily Repeat, gender Male, age 6 weeks
# condition-context: in vivo, po, 300 mg/kg, […], tissue Blood, route gavage, dose level Middle, time 28 day
Report as a plain number; the unit % is understood.

// field: Bas; key: CCOc1ccc(NC(C)=O)cc1 ; value = 0.2

Sure, the documented Bas for COC(=O)C1=C(C)NC(C)=C(C(=O)OC)C1c1ccccc1[N+](=O)[O-] is 0.4

Bas measured on CN/C(=N/CCSCc1nc[nH]c1C)NC#N = 0

Recorded Bas (compound CNC(=C[N+](=O)[O-])NCCSCc1ccc(CN(C)C)o1 ): 0

Per the record, O=C(OC[C@H]1O[C@@H](OC(=O)c2cc(O)c(O)c(OC(=O)c3cc(O)c(O)c(O)c3)c2)[C@H](OC(=O)c2cc(O)c(O)c(OC(=O)c3cc(O)c(O)c(O)c3)c2)[C@@H](OC(=O)c2cc(O)c(O)c(OC(=O)c3cc(O)c(O)c(O)c3)c2)[C@@H]1OC(=O)c1cc(O)c(O)c(OC(=O)c2cc(O)c(O)c(O)c2)c1)c1cc(O)c(O)c(OC(=O)c2cc(O)c(O)c(O)c2)c1 has Bas of 0

The value of Bas measured for the compound Cc1nnc2n1-c1ccc(Cl)cc1C(c1ccccc1Cl)=NC2 turned out to be 0

====

Hi there, I'd appreciate the recorded MCH for every entry that follows.
# Organism: Rattus norvegicus
# measurement-description: Open TG-GATES - Regimen: Daily Repeat
# Format: toxicity, organism-based, Sprague-Dawley
# Parameters: regimen Daily Repeat, gender Male, age 6 weeks
# condition-context: in vivo, po, 100 mg/kg, […], tissue Blood, route gavage, dose level Low, time 7 day
Entry rule: numbers only, all in pg.

Notebook: CNC(=C[N+](=O)[O-])NCCSCc1ccc(CN(C)C)o1 , MCH read as 21.8

The recorded MCH for entry Cc1nnc2n1-c1ccc(Cl)cc1C(c1ccccc1Cl)=NC2 equals 20.9

Lab book: MCH of O=C(OC[C@H]1O[C@@H](OC(=O)c2cc(O)c(O)c(OC(=O)c3cc(O)c(O)c(O)c3)c2)[C@H](OC(=O)c2cc(O)c(O)c(OC(=O)c3cc(O)c(O)c(O)c3)c2)[C@@H](OC(=O)c2cc(O)c(O)c(OC(=O)c3cc(O)c(O)c(O)c3)c2)[C@@H]1OC(=O)c1cc(O)c(O)c(OC(=O)c2cc(O)c(O)c(O)c2)c1)c1cc(O)c(O)c(OC(=O)c2cc(O)c(O)c(O)c2)c1 noted as 21

Field MCH (entry COC(=O)C1=C(C)NC(C)=C(C(=O)OC)C1c1ccccc1[N+](=O)[O-] ) reads 20.9

The compound listed as CN/C(=N/CCSCc1nc[nH]c1C)NC#N shows MCH equal to 20.8

====

# Species on record: Rattus norvegicus
# measurement-description: Open TG-GATES - Regimen: Daily Repeat
# Format: toxicity, organism-based, Sprague-Dawley
# Set-up: regimen Daily Repeat, gender Male, age 6 weeks
# condition-context: in vivo, po, 1000 mg/kg, […], tissue Blood, route gavage, dose level High, time 14 day
measure: WBC (x10_2/uL)
Answer with a number only, understood to be in x10_2/uL.

response.value for O=C(OC[C@H]1O[C@@H](OC(=O)c2cc(O)c(O)c(OC(=O)c3cc(O)c(O)c(O)c3)c2)[C@H](OC(=O)c2cc(O)c(O)c(OC(=O)c3cc(O)c(O)c(O)c3)c2)[C@@H](OC(=O)c2cc(O)c(O)c(OC(=O)c3cc(O)c(O)c(O)c3)c2)[C@@H]1OC(=O)c1cc(O)c(O)c(OC(=O)c2cc(O)c(O)c(O)c2)c1)c1cc(O)c(O)c(OC(=O)c2cc(O)c(O)c(O)c2)c1 [TANNIC ACID] (field: WBC) = 116.2

Please fill in: WBC reported for CCOc1ccc(NC(C)=O)cc1 [PHENACETIN] = 119.8

Lab note: Cc1nnc2n1-c1ccc(Cl)cc1C(c1ccccc1Cl)=NC2 [TRIAZOLAM] gave WBC of 135.4

The measured WBC associated with CN/C(=N/CCSCc1nc[nH]c1C)NC#N [CIMETIDINE] reads 110.4

Entry CNC(=C[N+](=O)[O-])NCCSCc1ccc(CN(C)C)o1 [RANITIDINE] ; WBC = 87.7

WBC reading for COC(=O)C1=C(C)NC(C)=C(C(=O)OC)C1c1ccccc1[N+](=O)[O-] [NIFEDIPINE] : 117.1

====

# Species on record: Rattus norvegicus
# measurement-description: Open TG-GATES - Regimen: Single
# Assay type: toxicity, organism-based, Sprague-Dawley
# Set-up: regimen Single, gender Male, age 6 weeks
# condition-context: in vivo, po, 1000 mg/kg, 24 h, tissue Plasma, route gavage, dose level High
Exercise: for every item that follows, state its recorded TP.
Hi! Could you send only the number? It should be in g/dL, unit omitted.

According to the records, this compound CN/C(=N/CCSCc1nc[nH]c1C)NC#N displays TP of 5.4

The compound listed as COC(=O)C1=C(C)NC(C)=C(C(=O)OC)C1c1ccccc1[N+](=O)[O-] has a reported TP of 6.1

The reported TP of the compound CNC(=C[N+](=O)[O-])NCCSCc1ccc(CN(C)C)o1 was 5.6

get_value(item= Cc1nnc2n1-c1ccc(Cl)cc1C(c1ccccc1Cl)=NC2 , readout=TP) returns 5.6

The compound listed as O=C(OC[C@H]1O[C@@H](OC(=O)c2cc(O)c(O)c(OC(=O)c3cc(O)c(O)c(O)c3)c2)[C@H](OC(=O)c2cc(O)c(O)c(OC(=O)c3cc(O)c(O)c(O)c3)c2)[C@@H](OC(=O)c2cc(O)c(O)c(OC(=O)c3cc(O)c(O)c(O)c3)c2)[C@@H]1OC(=O)c1cc(O)c(O)c(OC(=O)c2cc(O)c(O)c(O)c2)c1)c1cc(O)c(O)c(OC(=O)c2cc(O)c(O)c(O)c2)c1 has a reported TP of 5.4

====

Please respond with reported DBIL for every item in the list.
# Organism: Rattus norvegicus
# measurement-description: Open TG-GATES - Regimen: Single
# Assay type: toxicity, organism-based, Sprague-Dawley
# Parameters: regimen Single, gender Male, age 6 weeks
# condition-context: in vivo, po, 300 mg/kg, 6 h, tissue Plasma, route gavage, dose level Middle
Just the number please, in mg/dL, no unit attached.

Short answer for COC(=O)C1=C(C)NC(C)=C(C(=O)OC)C1c1ccccc1[N+](=O)[O-] [NIFEDIPINE] : DBIL was 0.006

Quick note, DBIL for CNC(=C[N+](=O)[O-])NCCSCc1ccc(CN(C)C)o1 [RANITIDINE] landed at 0.06

GET /value?item= CN/C(=N/CCSCc1nc[nH]c1C)NC#N [CIMETIDINE] &field=DBIL returns 0.068

Value of measured DBIL for the entry Cc1nnc2n1-c1ccc(Cl)cc1C(c1ccccc1Cl)=NC2 [TRIAZOLAM] : 0.01

Reported DBIL for O=C(OC[C@H]1O[C@@H](OC(=O)c2cc(O)c(O)c(OC(=O)c3cc(O)c(O)c(O)c3)c2)[C@H](OC(=O)c2cc(O)c(O)c(OC(=O)c3cc(O)c(O)c(O)c3)c2)[C@@H](OC(=O)c2cc(O)c(O)c(OC(=O)c3cc(O)c(O)c(O)c3)c2)[C@@H]1OC(=O)c1cc(O)c(O)c(OC(=O)c2cc(O)c(O)c(O)c2)c1)c1cc(O)c(O)c(OC(=O)c2cc(O)c(O)c(O)c2)c1 [TANNIC ACID] was 0.03
